The next entries give measured pKi for Cathepsin K (Homo sapiens).
Quick note: pKi values are minus log10 of concentrations in mol/L.

test_smiles: CC(C)C[C@H](NC(=O)c1ccc(N(C)C)cc1)C(=O)N1CC[C@@H]2[C@H]1C(=O)CN2C(=O)c1ccccc1
measured_attribute: pKi
assay_value: 8.26

Item CC(C)C[C@H](NC(=O)c1ccc(C(C)(C)C)cc1)C(=O)N1NC[C@@H]2[C@H]1C(=O)CN2C(=O)c1ccccc1 with Cathepsin K (Homo sapiens) - pKi?
8.46

Item CC(C)C[C@H](NC(=O)c1ccc(C(C)(C)C)cc1)C(=O)N1CC[C@@H]2[C@H]1C(=O)CN2C(=O)c1ccccc1 with Cathepsin K (Homo sapiens) - pKi?
8.00

Item CC(C)C[C@H](NC(=O)c1ccc(N(C)C)cc1)C(=O)N1OC[C@@H]2[C@H]1C(=O)CN2C(=O)c1ccccc1 with Cathepsin K (Homo sapiens) - pKi?
7.40
